- System: NMDA-induced convulsion
- measurement.protocol: Inhibition of NMDA-induced convulsion (i.c.v. coinjection)
- Type: in vivo, Male Swiss Webster mice
- stated.conditions: 1 nmol NMDA
outcome.measure: CD50 (nmol/mouse)
The reply should be a number in nmol/mouse, with the unit left off.

| molecule | outcome.measure | quantitative.readout |
| --- | --- | --- |
| C=CCN1CC[C@]23CCCC[C@H]2[C@H]1Cc1ccc(O)cc13 | CD50 | 1.06 |
| C[S+]1CC[C@]23CCCC[C@H]2[C@H]1Cc1ccc(O)cc13 (relative stereo) | CD50 | 0.02 |
| C=CCN1CC[C@@]23CCCC[C@@H]2[C@@H]1Cc1ccc(O)cc13 | CD50 | 2.68 |
| C=CC[S+]1CC[C@]23CCCC[C@H]2[C@H]1Cc1ccc(O)cc13 (stereo partly drawn) [β-sulfallorphan 16] | CD50 | 0.015 |
| CC(C)=CC[S+]1CC[C@]23CCCC[C@H]2[C@H]1Cc1ccc(O)cc13 (relative stereo) | CD50 | 0.19 |

Exercise: Answer with reported CD50 of Oc1ccc2c(c1)[C@@]13CCCC[C@H]1[C@@H](C2)[S+](CCc1ccccc1)CC3 (relative stereo)
Solution: 0.99

Exercise: Answer with reported CD50 of C=CC[S+]1CC[C@]23CCCC[C@H]2[C@H]1Cc1ccc(O)cc13 (relative stereo) [compound 12]
Solution: 0.07

Exercise: Answer with reported CD50 of CN1CC[C@@]23CCCC[C@@H]2[C@@H]1Cc1ccc(O)cc13 [dextrorphan, reference compound]
Solution: 0.55

Exercise: Answer with reported CD50 of CN1CC[C@]23CCCC[C@H]2[C@H]1Cc1ccc(O)cc13
Solution: 0.21
